Task for the reader: assign each of the following compounds its reported Recovery of active ingredient (% of initial assay).
Test: Active ingredient assay on storage, SCB239-12 (Table 3)
Assay type: physicochemical
Conditions: 2 month storage, 0° C.
Answers are plain numbers, in % w/w.

Worked cases, Recovery of active ingredient (% of initial assay) given:
> print(dat)
                                   compound  numeric.result
1  COc1nn(C(=O)[N-]S(=O)(=O)c2ccccc2OC(F)(F)F)c(=O)n1C.[Na+] [Flucarbazone, Flucarbazone Sodium]           99.76
2  CCCCC(CC)COC(=O)COc1ccc(Cl)cc1C (centres unmarked)          101.15
3  CCCCCC(C)OC(=O)COc1ccc(Cl)c2cccnc12 (centres unmarked)          100.12
4  CCCCCCC(C)OC(=O)COc1nc(F)c(Cl)c(N)c1Cl (centres unmarked)           98.83

Could you now consider this next compound?
Please report the recorded Recovery of active ingredient (% of initial assay) for CCCCCCCC(=O)Oc1c(Br)cc(C#N)cc1Br [Bromoxynil, Bromoxynil Octanoate] .
97.06
